# STUDY TARGET: Full-length human PIM-1 (Homo sapiens, UniProt P11309)
# Sequence (P11309 whole entry): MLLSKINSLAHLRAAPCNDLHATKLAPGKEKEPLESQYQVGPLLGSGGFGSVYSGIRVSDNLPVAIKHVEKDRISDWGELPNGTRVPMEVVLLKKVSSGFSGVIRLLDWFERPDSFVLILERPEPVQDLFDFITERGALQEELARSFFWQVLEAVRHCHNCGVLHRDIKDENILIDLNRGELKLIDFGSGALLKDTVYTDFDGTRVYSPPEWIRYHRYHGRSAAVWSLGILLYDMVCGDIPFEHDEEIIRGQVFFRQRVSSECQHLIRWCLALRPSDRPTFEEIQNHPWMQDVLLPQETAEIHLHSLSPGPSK
Bucketed by reported IC50, buckets being L: < 200 nM; M: ≥ 200 nM and < 400 nM; H: ≥ 400 nM

molecule="O=C(C[C@@H]1CNC(=O)c2cc(-c3cccc(F)c3)cn21)N[C@H](CO)Cc1ccccc1 [A127-M-B64 isomer R]" group=H
molecule="O=C(CC1CNC(=O)c2cc(-c3ccccc3F)cn21)NCc1cccc(F)c1 (stereo not shown)" group=M
molecule="O=C(CC1CNC(=O)c2cc(-c3cccc(C(F)(F)F)c3)cn21)NCC1CCCCC1 (stereo not shown)" group=M
molecule="O=C(C[C@@H]1CNC(=O)c2cc(-c3cccc(C(F)(F)F)c3)cn21)N[C@H](CO)Cc1ccccc1 [A133-M-B64 isomer R]" group=H
molecule="O=C(CC1CNC(=O)c2cc(-c3cccc(Cl)c3)cn21)NCC1CC1 (stereo not shown)" group=L
molecule="O=C(CC1CNC(=O)c2cc(-c3cccc(C(F)(F)F)c3)cn21)NCc1ccccc1 (stereo not shown)" group=H
molecule="O=C(C[C@H]1CNC(=O)c2cc(-c3cccc(F)c3)cn21)N[C@H](CO)c1ccccc1 [A127-M-B62 isomer S]" group=L
molecule="O=C(CC1CNC(=O)c2cc(-c3cccc(Cl)c3)cn21)NC1CCCC1 (stereo not shown)" group=M
molecule="CC(C)(C)NC(=O)CC1CNC(=O)c2cc(-c3cccc(Cl)c3)cn21 (stereo not shown)" group=H
molecule="CC(C)CCNC(=O)CC1CNC(=O)c2cc(-c3cccc(Cl)c3)cn21 (stereo not shown)" group=M
molecule="O=C(CC1CNC(=O)c2cc(-c3cccc(Cl)c3)cn21)NCc1ccccc1 (stereo not shown)" group=L
molecule="O=C(CC1CNC(=O)c2cc(-c3ccc(F)cc3F)cn21)NCc1ccccc1 (stereo not shown)" group=L
molecule="O=C(C[C@@H]1CNC(=O)c2cc(-c3ccnc(F)c3)cn21)N[C@H](CO)C1CCCCC1 [A157-M-B61 isomer R]" group=M
molecule="O=C(CC1CNC(=O)c2cc(-c3cn[nH]c3)cn21)NCC1CCCCC1 (stereo not shown)" group=H
molecule="O=C(CC1CNC(=O)c2cc(-c3ccc(F)c(F)c3)cn21)NCc1ccco1 (stereo not shown)" group=L
